For each of the molecules below, state its IC50.
target of assay: P2X7R point mutant S165F (Homo sapiens, UniProt Q99572, I21V/M24R/N16P/N25R/Q22R/R20V/S165F/S23N/T19I/Y26L)
Construct: expressed in transfected cells; host or cells: Xenopus laevis oocytes (cRNA injection)
assay protocol: Two-electrode voltage clamp of ATP-evoked currents in Xenopus oocytes
Assay type: cell-based
condition notes: EC90 ATP, mean ± S.E.M.
Unit µM implied. Number only.

## Input Reported IC50, molecule COc1ccc(CC(=O)NC(N=C(NC#N)Nc2cccc3ncccc23)C(C)(C)C)cc1OC (centres unmarked) [A740003] : ____
## Output 0.2

## Input Reported IC50, molecule Cl.Clc1cccc(-c2nnnn2Cc2cccnc2)c1Cl.O [A438079] : ____
## Output 7.94
